assay details: Half life in Sprague-Dawley rat at 25 mg/kg administered via oral gavage measured over 24 hrs by LC-MS/MS analysis
Type: ADME, organism-based
details: in vivo
observed property: half-life (h)
Numbers only; they are read as h.

[ask] Give me measured half-life, please, for this compound: `Cc1nc(-c2ccc(-c3ccccc3)cc2)sc1-c1nnc(NC(=N)N2CCN(C)CC2)o1`
[reply] 2.04

---

assay details: AUClast in Sprague-Dawley rat at 25 mg/kg administered via oral gavage measured over 24 hrs by LC-MS/MS analysis
Format: ADME, organism-based
Set-up: dose 25 mg/kg, route oral, time 0 - last
details: in vivo
observed property: AUC(0-t) at 24 h (ng·h/mL)
Numbers only; they are read as ng·h/mL.

[ask] Give me measured AUC(0-t) at 24 h, please, for this compound: `Cc1nc(-c2ccc(-c3ccccc3)cc2)sc1-c1nnc(NC(=N)N2CCN(C)CC2)o1`
[reply] 83200

---

assay details: Ratio of non cytotoxic concentration against human HRT18 cells to MIC for methicillin-resistant Staphylococcus aureus 2658 RCMB
Type: toxicity, cell-based
observed property: selectivity ratio

[ask] Give me measured selectivity ratio, please, for this compound: `Cc1nc(-c2ccc(-c3ccccc3)cc2)sc1-c1nnc(NC(=N)N2CCN(C)CC2)o1`
[reply] > 400

---

assay details: Aqueous solubility in PBS after 2 hrs
Format: physicochemical
details: buffer
observed property: solubility (µM)
Numbers only; they are read as µM.

[ask] Give me measured solubility, please, for this compound: `Cc1nc(-c2ccc(-c3ccccc3)cc2)sc1-c1nnc(NC(=N)N2CCN(C)CC2)o1`
[reply] 104

[ask] Give me measured solubility, please, for this compound: `C/C(=N\NC(=N)N)c1sc(-c2ccc(-c3ccccc3)cc2)nc1C`
[reply] 2.7

[ask] Give me measured solubility, please, for this compound: `Cc1nc(-c2ccc(-c3ccccc3)cc2)sc1-c1ccnc(NC(=N)N)n1`
[reply] 2.2

---

assay details: Aqueous solubility in PBS after 2 hrs
Assay type: physicochemical
details: buffer
Could you please report measured solubility for the items listed next?

[ask] Give me measured solubility, please, for this molecule: `Cc1nc(-c2ccc(-c3ccccc3)cc2)sc1-c1nnc(NC(=N)N)o1`
[reply] 128 µM

[ask] Give me measured solubility, please, for this molecule: `Cc1nc(-c2ccc(-c3ccccc3)cc2)sc1-c1nnc(NN)o1`
[reply] 77 µM

[ask] Give me measured solubility, please, for this molecule: `Cc1nc(-c2ccc(-c3ccccc3)cc2)sc1-c1nnc(N2CCN(C)CC2)o1`
[reply] 45 µM

[ask] Give me measured solubility, please, for this molecule: `CNC(=N)Nc1nnc(-c2sc(-c3ccc(-c4ccccc4)cc3)nc2C)o1`
[reply] 89 µM

[ask] Give me measured solubility, please, for this molecule: `Cc1nc(-c2ccc(-c3ccccc3)cc2)sc1-c1nnc(N2CC(O)C2)o1`
[reply] 150 µM
